These entries and their values trace back to the RNAGym collection of RNA variant scans (doi:10.7554/elife.80360).

B1: CPEB3 Ribozyme (parent)
chain: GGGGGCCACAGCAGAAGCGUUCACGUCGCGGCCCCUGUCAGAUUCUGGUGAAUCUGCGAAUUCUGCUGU

Variants of: B1
assay details: self-cleavage, relative activity (ratio to wild type); higher = more cleavage; co-transcriptional
Kind request: treat 0.7 as inclusive, so self-cleavage at 0.7 or higher is y, anything lower is n.

- mutation string: "A15G C34A"
  label value: "y"
- mutation string: "A13G G47A"
  label value: "y"
- mutation string: "G1U U43C"
  label value: "n"
- mutation string: "G5U G37C"
  label value: "n"
- mutation string: "C32A C57U"
  label value: "n"
- mutation string: "G3A U69A"
  label value: "y"
- mutation string: "G1A C12A"
  label value: "n"
- mutation string: "G1A G50A"
  label value: "n"
- mutation string: "G19A C57U"
  label value: "n"
- mutation string: "C32U C57U"
  label value: "n"
- mutation string: "C39A U67A"
  label value: "y"
- mutation string: "C39G G48U"
  label value: "y"
- mutation string: "G5U C32A"
  label value: "y"
- mutation string: "G14U U43G"
  label value: "n"
- mutation string: "G2C C33A"
  label value: "n"
- mutation string: "G5A G47A"
  label value: "y"
- mutation string: "U46C A51U"
  label value: "y"
- mutation string: "G25U C33U"
  label value: "n"
- mutation string: "G30A G65C"
  label value: "n"
- mutation string: "G3U C57U"
  label value: "n"
- mutation string: "C12U G17U"
  label value: "n"
- mutation string: "U38G C45U"
  label value: "n"
- mutation string: "A8C A15U"
  label value: "y"
- mutation string: "C35G G50U"
  label value: "n"
- mutation string: "C12U U61A"
  label value: "y"
- mutation string: "C24U C32G"
  label value: "n"
- mutation string: "C7G A15C"
  label value: "n"
- mutation string: "C7G U44A"
  label value: "n"
